Values from ChEMBL document CHEMBL1125320

target: Type-1 angiotensin II receptor B (Rattus norvegicus); experiment: Compound was evaluated for the inhibition of [125I]AII specific binding to rat mesenteric arteries
Endpoint: pIC50
The scale used: pIC50 is minus the common logarithm of the concentration in molar units.

Query :: Item: CCCCc1ncc(/C=C(\Cc2cccc(Oc3ccccc3)c2)C(=O)O)n1Cc1ccccc1Cl Test system: Type-1 angiotensin II receptor B (Rattus norvegicus) Read-out: pIC50 Value: ?
Result :: 5.00

====

target: Angiotensin II receptor (Oryctolagus cuniculus); experiment: Inhibition of angiotensin II induced vasoconstriction of rabbit aorta
Endpoint: log10(Kb) (log10 of the value in nM)
Transform log10 | Measure Kb | Unit nM

Query :: Form field: reported log10(Kb) of CCCCc1ncc(/C=C(\Cc2ccoc2)C(=O)O)n1Cc1ccccc1Cl
Result :: 1.48

Query :: Form field: reported log10(Kb) of CCCCc1ncc(/C=C(\CCc2ccccc2)C(=O)O)n1Cc1ccccc1Cl
Result :: 2.62

Query :: Form field: reported log10(Kb) of CCCCc1ncc(/C=C(\Cc2ccc3ccccc3c2)C(=O)O)n1Cc1ccccc1Cl
Result :: 4.16

Query :: Form field: reported log10(Kb) of CCCCc1ncc(-c2cccc(C(=O)O)c2)n1Cc1ccccc1Cl
Result :: 3.68

Query :: Form field: reported log10(Kb) of CCCCc1ncc(/C=C(\Cc2ccco2)C(=O)O)n1Cc1ccccc1Cl
Result :: 1.70

Query :: Form field: reported log10(Kb) of CCCCc1ncc(/C=C(\Cc2ccccc2C)C(=O)O)n1Cc1ccccc1Cl
Result :: 3.06

Query :: Form field: reported log10(Kb) of CCCCc1ncc(/C=C(\Cc2ccc(N(C)C)cc2)C(=O)O)n1Cc1ccccc1Cl
Result :: 2.77

Query :: Form field: reported log10(Kb) of CCCCc1ncc(CCCC(=O)O)n1Cc1ccccc1Cl
Result :: 4.18

Query :: Form field: reported log10(Kb) of CCCCc1ncc(-c2ccccc2C(=O)O)n1Cc1ccccc1Cl
Result :: 4.24

Query :: Form field: reported log10(Kb) of CCCCc1ncc(/C(C)=C/C(=O)O)n1Cc1ccccc1Cl
Result :: 2.82

Query :: Form field: reported log10(Kb) of CCCCc1ncc(/C=C(\Cc2ccccn2)C(=O)O)n1Cc1ccccc1Cl
Result :: 3.46

====

I'd be grateful if you could share measured log10(IC50) for these entries.
target: Type-1 angiotensin II receptor B (Rattus norvegicus, UniProt P29089); assay: Inhibition of [125I]angiotensin II receptor specific binding to rat mesenteric arteries
Sequence (P29089 whole entry): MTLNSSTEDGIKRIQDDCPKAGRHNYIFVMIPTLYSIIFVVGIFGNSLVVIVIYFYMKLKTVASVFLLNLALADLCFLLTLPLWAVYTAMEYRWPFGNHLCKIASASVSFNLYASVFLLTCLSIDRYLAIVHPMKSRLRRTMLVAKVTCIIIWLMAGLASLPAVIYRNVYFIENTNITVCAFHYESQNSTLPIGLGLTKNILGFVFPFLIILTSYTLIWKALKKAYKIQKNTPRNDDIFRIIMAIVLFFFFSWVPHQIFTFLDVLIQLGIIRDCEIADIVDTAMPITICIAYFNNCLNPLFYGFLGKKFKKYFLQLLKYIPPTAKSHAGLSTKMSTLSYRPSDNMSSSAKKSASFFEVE
Transform log10 | Measure IC50 | Unit nM

Query :: Form field: reported log10(IC50) of CCCCc1ncc(/C=C(\Cc2ccc([N+](=O)[O-])cc2)C(=O)O)n1Cc1ccccc1Cl
Result :: 2.60

Query :: Form field: reported log10(IC50) of CCCCc1ncc(/C=C(\Cc2ccc(Cl)c(Cl)c2)C(=O)O)n1Cc1ccccc1Cl
Result :: 4.41

Query :: Form field: reported log10(IC50) of CCCCc1ncc(/C=C(\Cc2ccc(C)s2)C(=O)O)n1Cc1ccccc1Cl
Result :: 2.85

Query :: Form field: reported log10(IC50) of CCCCc1ncc(/C=C(\Cc2ccccc2C)C(=O)O)n1Cc1ccccc1Cl
Result :: 3.70

Query :: Form field: reported log10(IC50) of CCCCc1ncc(/C=C(\Cc2sccc2C)C(=O)O)n1Cc1ccccc1Cl
Result :: 2.86

Query :: Form field: reported log10(IC50) of CCCCc1ncc(/C=C(\Cc2ccccc2)C(=O)O)n1Cc1ccccc1Cl
Result :: 3.41

Query :: Form field: reported log10(IC50) of CCCCc1ncc(/C=C(\Cc2ccc(N)cc2)C(=O)O)n1Cc1ccccc1Cl
Result :: 3.48

Query :: Form field: reported log10(IC50) of CCCCc1ncc(/C=C(\Cc2ccc(OC)s2)C(=O)O)n1Cc1ccccc1Cl
Result :: 1.95

Query :: Form field: reported log10(IC50) of CCCCc1ncc(/C=C(/C(=O)O)C(c2ccccc2)c2cccs2)n1Cc1ccccc1Cl (stereo unspecified)
Result :: 3.38

Query :: Form field: reported log10(IC50) of CCCCc1ncc(/C=C(\Cc2ccsc2)C(=O)O)n1Cc1ccccc1Cl
Result :: 2.52

Query :: Form field: reported log10(IC50) of CCCCc1ncc(/C=C(\Cc2cc(OC)cs2)C(=O)O)n1Cc1ccccc1Cl
Result :: 2.48

====

biological target: Angiotensin II receptor (Rattus norvegicus, UniProt P29089+P25095+P35351); experiment: Inhibition of [125I]angiotensin II specific binding to rat mesenteric arteries; assay type: protein assay
I'd be grateful if you could share measured IC50 for these entries.
Number only, in nM; omit the unit.

Query :: Form field: reported IC50 of CCCCc1ncc(/C=C(\Cc2cccc(OC)c2)C(=O)O)n1Cc1ccccc1Cl
Result :: 810

Query :: Form field: reported IC50 of CCCCc1ncc(/C=C(\Cc2ccc(OC)cc2)C(=O)O)n1Cc1ccccc1Cl
Result :: 810

Query :: Form field: reported IC50 of CCCCc1ncc(/C=C(\Cc2ccc(OC)c(OC)c2)C(=O)O)n1Cc1ccccc1Cl
Result :: 6800
